Value type: melting point

Compound smiles	Result
O=C1NCCC(=O)c2c1oc1ccc(O)cc21	> 300 °C
O=C1NCCSc2c1sc1c(OCc3ccccc3)cccc21	213 to 215 °C
COc1ccc2sc3c(c2c1)SCCN(C)C3=O	160 to 161 °C
C=CCOc1ccc2oc3c(c2c1)CCCNC3=O	198 to 200 °C
O=C1NCCSc2c1sc1ccc(N=C=S)cc21	253 to 253.3 °C
CN1CCCc2c(oc3ccc(O)cc23)C1=O	282 to 284 °C

# melting point (compound: O=C1NCCCOc2c1sc1ccc(OCc3ccccc3)cc21 ) is 195 to 200 °C

# melting point (compound: CC(C)(C)[Si](C)(C)Oc1ccc2oc3c(c2c1)CCCNC3=O ) is 209 to 212 °C

# melting point (compound: C=CCc1c(O)ccc2oc3c(c12)CCCNC3=O ) is 255 to 257 °C

# melting point (compound: O=C1NCCc2c1[nH]c1ccc(OCc3ccccc3)cc21 ) is 208 to 210 °C

# melting point (compound: Nc1ccc2[nH]c3c(c2c1)CCCNC3=O ) is 202 to 207 °C
